Each entry below carries its recorded melting point.

Known melting point results, listed for orientation:
{"columns": ["compound", "melting point"],
 "data": [
  ["CCCc1nc(C)n2[nH]c(=O)nc2c1Br", "221 °C"],
  ["COCCCn1c(O)nc2ccc(C(F)(F)F)cc21", "83 to 84 °C"],
  ["CC(=O)c1ccc(Oc2ccc(F)cc2)cc1", "65 to 67 °C"]
]}

We next turn to a different compound, shown below.
[ask] Could you share which melting point value was measured for `CNS(=O)(=O)c1cc(-c2ccc(C(F)(F)F)n(C)c2=O)c(F)cc1Cl` ?
[reply] 150 to 151 °C

----------
assay_metric: melting point

[ask] What does the data say about its melting point? Entry: `COc1cc(OC)n2nc(N)nc2n1`
[reply] 215 to 220 °C

[ask] One more compound: COc1ccc(N2C(=O)C(O[Si](C(C)C)(C(C)C)C(C)C)C2c2ccc(F)cc2)cc1 (stereo not given)
[reply] 121 to 122 °C

[ask] Consider next the compound `CSc1ccc(-n2cnc3ccc(-c4nnc(CC(F)(F)F)o4)cc32)cc1` in the same way.
[reply] 190 to 192 °C

[ask] Further, for `C#CCOC(=O)c1ccc2ccccc2c1` ?
[reply] 68 to 70 °C

[ask] Note, next up: COc1cc(C(=O)N2CCC(CCN3CCC(C(=O)c4nc5ccccc5n4Cc4ccc(F)cc4)CC3)(c3ccc(F)cc3F)C2)cc(OC)c1OC (stereo not given)
[reply] 58 to 60 °C

----------
assay_metric: melting point

{"columns": ["molecule", "assay_metric", "reported_result"],
 "data": [
  ["CCC(O)(c1ccc(O)cc1)c1ccc(Cl)cc1 (stereo not given)", "melting point", "148 to 149 °C"],
  ["COC(=O)C1=C(C(F)F)NC(C)=C(C(=O)OC2CCCC2)C1c1cccc([N+](=O)[O-])c1C (stereo not given)", "melting point", "154 to 156 °C"],
  ["CCOCc1nc2c(N)nc3cc(-c4cccc(C(=O)N5CCCC5)c4)ccc3c2n1CC(C)(C)O", "melting point", "216 to 218 °C"],
  ["CN(Cc1cc2cc(Cl)ccc2o1)C1CCN(c2ccc(OC[C@@]3(C)Cn4cc([N+](=O)[O-])nc4O3)cc2)CC1", "melting point", "207 to 210 °C"],
  ["Clc1ccc(N2CCN(Cc3cn4cc(Cl)ccc4n3)CC2)cc1", "melting point", "145 to 146 °C"]
]}

[ask] Look up melting point: `Fc1ccc(Nc2nc(-c3ccc(F)cc3)cs2)cc1`
[reply] 127 °C

[ask] Then what about the molecule `CC(C)(C)c1ccc(C2(CN)CC2)cc1` ?
[reply] 39 to 41 °C

[ask] Repeat for the following molecule: `COc1ccc(NC(=O)c2ccc(C(C)(C)CN)cc2)cc1`
[reply] 139 to 140 °C

[ask] Next molecule: CN1C(=O)C(c2ccc(OC(F)F)cc2)(c2cccc(C#CCCO)c2)N=C1N (stereo not given)
[reply] 90 to 93 °C

[ask] Next entry: CCc1cccc(C(O)c2nc(OC)cc(OC)n2)c1N (stereo not given)
[reply] 85 to 86 °C

----------
Entries and their melting point
# value in °C; strip the unit string

{"columns": ["compound", "melting point [°C]"],
 "data": [
  ["CC1(C)CCC(C(=O)N2CCC[C@H]2C(=O)O)C1S (stereo not given in full)", 153]
]}

From here, focus on the item given below.
[ask] Endpoint output: melting point of `NC(=O)C(OC(=O)c1ccccc1Cl)(C(N)=O)c1ccc(Cl)c(Cl)c1` . Value?
[reply] 220

Taken from a melting point compilation (Tetko et al.; mined from patent text by program, amines drawn as free bases though some values may be those of a salt).
